Item-by-item account of pIC50
- target_or_system: human V1bR (Homo sapiens, UniProt P47901)
- measurement_notes: Inhibition activity on human V1bR (Fluo-4 calcium assay, HEK293/human V1bR pool cells)
- run_conditions: vasopressin 3 nM
pIC50: −log10 of the molar value.

smi	pIC50
COCc1nnc(N2CC(N3CCOc4cc(F)ccc43)C2)n1-c1ccc(OC)nc1	4.36
COCc1nnc(N2CC(c3csc4cc(F)ccc34)C2)n1-c1ccc(OC)nc1	4.37
COc1ccc(-n2c(C)nnc2N2CC(N3CCOc4cc(F)ccc43)C2)cn1	4.11
COCc1nnc(N2CC(c3cccc4cc(F)ccc34)C2)n1-c1ccc(OC)nc1	4.59
COc1ccc(-n2c(C)nnc2N2CC(N3CCCc4cc(F)ccc43)C2)cn1	4.02
COCc1nnc(N2CC(N3CCCc4cc(F)ccc43)C2)n1-c1ccc(OC)nc1	4.68
CCOCc1nnc(N2CC(N3CCOc4cc(F)ccc43)C2)n1-c1ccc(OC)nc1	4.26

* * *

- target_or_system: UniProt:P37288
- Sequence (P37288 whole entry): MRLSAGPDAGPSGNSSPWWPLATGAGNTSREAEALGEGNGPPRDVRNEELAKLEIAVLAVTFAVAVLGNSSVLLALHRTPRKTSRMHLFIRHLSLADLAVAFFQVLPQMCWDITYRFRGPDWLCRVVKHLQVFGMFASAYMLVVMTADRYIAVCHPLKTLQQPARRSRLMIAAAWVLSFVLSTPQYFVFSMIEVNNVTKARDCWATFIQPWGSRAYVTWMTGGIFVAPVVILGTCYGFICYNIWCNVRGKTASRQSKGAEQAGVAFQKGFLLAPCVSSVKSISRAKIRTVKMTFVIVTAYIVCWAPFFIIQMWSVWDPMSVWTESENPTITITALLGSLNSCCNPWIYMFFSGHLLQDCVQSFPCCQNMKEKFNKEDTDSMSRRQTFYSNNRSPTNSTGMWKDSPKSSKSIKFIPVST
- measurement_notes: Inhibition activity on human V1aR (Fluo-4 calcium assay, HEK293/human V1aR stably transfected cells)
- run_conditions: vasopressin 3 nM
pIC50: −log10 of the molar value.

molecule	pIC50
COc1ccc(-n2c(N3CC(N4CCCc5cc(F)ccc54)C3)nnc2C(F)(F)F)cn1	5.70
CCOCc1nnc(N2CC(n3cc(Cl)c4cc(F)ccc43)C2)n1-c1ccc(OC)nc1	5.64
COCc1nnc(N2CC(c3cccc4cc(F)ccc34)C2)n1-c1ccc(OC)nc1	5.35
COc1ccc(-n2c(C)nnc2N2CC(N3CCCc4cc(F)ccc43)C2)cn1	5.21
COCc1nnc(N2CC(N3CCCc4c(F)cccc43)C2)n1-c1ccc(OC)nc1	5.70
COc1ccc(-n2c(C)nnc2N2CC(N3CCOc4cc(F)ccc43)C2)cn1	4.64
COCc1nnc(N2CC(c3coc4cc(F)ccc34)C2)n1-c1ccc(OC)nc1	5.64
COCc1nnc(N2CC(n3cc(C(F)(F)F)c4cc(F)ccc43)C2)n1-c1ccc(OC)nc1	5.17
COCc1nnc(N2CC(N3CCCc4cc(F)ccc43)C2)n1-c1ccc(OC)nc1	5.07
COCc1nnc(N2CC(C3CCOc4cc(F)ccc43)C2)n1-c1ccc(OC)nc1 (stereo not drawn)	5.57
COc1ccc(-n2c(CO)nnc2N2CC(c3cccc4cc(F)ccc34)C2)cn1	5.05
COc1ccc(-n2c(C)nnc2N2CC(N3CCCc4c(F)cccc43)C2)cn1	5.51
COC(=O)NCc1nnc(N2CC(N3CCCc4cc(F)ccc43)C2)n1-c1ccc(OC)nc1	5.68
COCc1nnc(N2CC(N3CCOc4c(F)cccc43)C2)n1-c1ccc(OC)nc1	5.12
COCc1nnc(N2CC(n3cc(C#N)c4cc(F)ccc43)C2)n1-c1ccc(OC)nc1	4.92
COCc1nnc(N2CC(n3cc(Cl)c4cc(F)ccc43)C2)n1-c1ccc2c(c1)OCO2	5.15
COCc1nnc(N2CC(N3CCOc4cc(F)ccc43)C2)n1-c1ccc(OC)nc1	4.97
COc1ccc(-n2c(C)nnc2N2CC(n3cc(C)c4cc(F)ccc43)C2)cn1	5.33
COc1ccc(-n2c(N3CC(N4CCOc5cc(F)ccc54)C3)nnc2C(F)(F)F)cn1	5.10
CCOCc1nnc(N2CC(N3CCOc4cc(F)ccc43)C2)n1-c1ccc(OC)nc1	5.46
COCc1nnc(N2CC(N3CCC(C)(C)c4cc(F)ccc43)C2)n1-c1ccc(OC)nc1	5.35
COc1ccc(-n2c(C(F)F)nnc2N2CC(N3CCOc4cc(F)ccc43)C2)cn1	4.85
COCc1nnc(N2CC(c3csc4cc(F)ccc34)C2)n1-c1ccc(OC)nc1	5.92
COCc1nnc(N2CC(N3CCCc4cc(F)ccc43)C2)n1-c1ccc2c(c1)OCO2	5.62
COCc1nnc(N2CC(c3ccnc4cc(F)ccc34)C2)n1-c1ccc(OC)nc1	4.74
COCc1nnc(N2CC(n3cc(Cl)c4cc(F)ccc43)C2)n1-c1ccc(OC)nc1	5.24
COCc1nnc(N2CC(N3C(=O)COc4cc(F)ccc43)C2)n1-c1ccc(OC)nc1	4.23
COc1ccc(-n2c(COC(F)F)nnc2N2CC(N3CCOc4cc(F)ccc43)C2)cn1	5.77
COCc1nnc(N2CC(c3cn(C)c4cc(F)ccc34)C2)n1-c1ccc(OC)nc1	4.96
COCc1nnc(N2CC(n3cc(C)c4cc(F)ccc43)C2)n1-c1ccc(OC)nc1	5.36
